- assay procedure: Binding affinity against bacterial 16S rRNA using mass spectrometry based assay
- Set-up: species or system Escherichia coli
endpoint name: Kd (µM)

CN(CCCCN(C)CC(O)CO[C@H]1[C@H](O)[C@@H](O)[C@H](N)C[C@@H]1N)CC(O)CO[C@H]1O[C@H](CO)[C@@H](O)[C@H](O)[C@H]1N (stereo partly drawn); 54

[I] CN(CCN(C)CC(O)CO[C@H]1[C@H](O)[C@@H](O)[C@H](N)C[C@@H]1N)CC(O)CO[C@H]1[C@H](O)[C@@H](O)[C@H](N)C[C@@H]1N (stereo partly drawn)
[II] CN(CCCCN(C)CC(O)CO[C@H]1[C@H](O)[C@@H](O)[C@H](N)C[C@@H]1N)CC(O)CO[C@H]1[C@H](O)[C@@H](O)[C@H](N)C[C@@H]1N (stereo partly drawn)
Q: Which shows the larger Kd value: I or II ? Let me know the label of the one you choose.
Ans: I
